The measurements presented in this section are drawn from patent US12071392B2.

Target: NMDA glutamate receptors NR1/NR2B encoded by the human GRIN1 and GRIN2B genes (Homo sapiens, UniProt Q05586+Q13224)
Construct: expressed in transfected cells
Sequence (Q13224 27-1484, other chains not shown): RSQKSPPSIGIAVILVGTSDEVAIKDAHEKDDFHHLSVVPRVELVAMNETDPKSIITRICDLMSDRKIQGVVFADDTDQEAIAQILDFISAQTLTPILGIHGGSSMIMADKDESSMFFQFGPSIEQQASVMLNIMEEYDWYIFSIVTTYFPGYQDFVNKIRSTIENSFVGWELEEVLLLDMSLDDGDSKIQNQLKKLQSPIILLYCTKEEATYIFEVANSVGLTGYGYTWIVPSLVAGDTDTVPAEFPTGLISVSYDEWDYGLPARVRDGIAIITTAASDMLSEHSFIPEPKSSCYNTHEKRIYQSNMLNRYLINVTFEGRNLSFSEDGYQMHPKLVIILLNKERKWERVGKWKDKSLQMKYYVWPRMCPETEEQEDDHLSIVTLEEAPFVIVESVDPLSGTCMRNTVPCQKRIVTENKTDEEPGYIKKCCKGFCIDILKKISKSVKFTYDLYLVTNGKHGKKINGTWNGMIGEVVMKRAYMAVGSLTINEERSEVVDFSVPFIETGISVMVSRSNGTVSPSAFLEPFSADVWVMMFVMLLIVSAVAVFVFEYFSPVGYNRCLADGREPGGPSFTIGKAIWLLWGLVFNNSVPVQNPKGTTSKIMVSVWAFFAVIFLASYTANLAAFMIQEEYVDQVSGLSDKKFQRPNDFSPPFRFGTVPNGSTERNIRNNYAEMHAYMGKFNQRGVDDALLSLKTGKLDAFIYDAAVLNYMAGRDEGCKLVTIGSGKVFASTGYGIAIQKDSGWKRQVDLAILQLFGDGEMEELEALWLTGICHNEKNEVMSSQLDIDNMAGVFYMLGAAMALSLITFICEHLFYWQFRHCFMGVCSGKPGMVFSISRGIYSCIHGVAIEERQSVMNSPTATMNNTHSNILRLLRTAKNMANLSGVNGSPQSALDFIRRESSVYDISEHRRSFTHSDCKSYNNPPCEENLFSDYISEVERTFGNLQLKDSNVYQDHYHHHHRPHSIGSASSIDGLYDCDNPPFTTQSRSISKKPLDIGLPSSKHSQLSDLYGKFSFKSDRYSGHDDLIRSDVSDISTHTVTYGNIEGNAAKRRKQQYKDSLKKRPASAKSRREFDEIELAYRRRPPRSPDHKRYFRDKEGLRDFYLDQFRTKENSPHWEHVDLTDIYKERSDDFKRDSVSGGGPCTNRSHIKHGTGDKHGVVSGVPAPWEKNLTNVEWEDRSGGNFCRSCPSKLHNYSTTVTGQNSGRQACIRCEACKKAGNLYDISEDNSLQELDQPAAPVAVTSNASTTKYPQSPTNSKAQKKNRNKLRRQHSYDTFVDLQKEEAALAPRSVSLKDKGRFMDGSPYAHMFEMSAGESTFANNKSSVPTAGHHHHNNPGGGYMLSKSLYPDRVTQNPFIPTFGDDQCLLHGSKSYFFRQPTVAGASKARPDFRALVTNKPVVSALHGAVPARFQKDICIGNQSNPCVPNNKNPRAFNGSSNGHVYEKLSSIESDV
Test: IonWorks Barracuda automated patch clamp, inhibition of NR1/NR2B receptors in HEK293 cells
Type: cell-based
Settings: co-application with EC50 L-glutamate, −40 mV, 8-point concentration-response, read-out: Peak current IC50
pIC50: −log10 of the molar value.
Collected pIC50 values appear next to each entry.

[
  {
    "molecule": "NCC1(c2cccc(OCCCO[N+](=O)[O-])c2)C2CC3CC(C2)CC1C3 (stereo not shown) [Cmpd 4]",
    "pIC50": 4.45
  },
  {
    "molecule": "CCC(O[N+](=O)[O-])C12CC3(C)CC(C)(CC(CCN)(C3)C1)C2 (stereo not shown) [Cmpd 3]",
    "pIC50": 5.10
  },
  {
    "molecule": "CC12CC3CC(CN)(C1)CC(O[N+](=O)[O-])(C3)C2 (stereo not shown) [Cmpd 5]",
    "pIC50": 4.95
  },
  {
    "molecule": "CCC12CC3CC(N)(C1)CC(CO[N+](=O)[O-])(C3)C2 (stereo not shown) [NM-004, reference compound]",
    "pIC50": 4.59
  },
  {
    "molecule": "NCC1(c2cccc(O[N+](=O)[O-])c2)C2CC3CC(C2)CC1C3 (stereo not shown) [Cmpd 2]",
    "pIC50": 4.14
  },
  {
    "molecule": "CCC12CC3(N)CC(CC)(C1)CC(O[N+](=O)[O-])(C3)C2 [YQW-036, Nitrosynapsin, reference compound]",
    "pIC50": 5.00
  },
  {
    "molecule": "CC12CC3(C)CC(CN)(C1)CC(CO[N+](=O)[O-])(C2)C3 [Cmpd 1]",
    "pIC50": 5.34
  }
]

====

Biological target: NMDA glutamate receptors NR1/NR2B encoded by the human GRIN1 and GRIN2B genes (Homo sapiens, UniProt Q05586+Q13224)
Construct: expressed in transfected cells
Test: IonWorks Barracuda automated patch clamp, inhibition of NR1/NR2B receptors in HEK293 cells
Type: cell-based
Conditions: co-application with EC50 L-glutamate, −40 mV, 8-point concentration-response, read-out: Steady state current IC50
One threshold, 7 µM, splits the recorded IC50 values: lower ones are t, equal or higher ones are f.

[
  {
    "molecule": "NCC1(c2cccc(O[N+](=O)[O-])c2)C2CC3CC(C2)CC1C3 (stereo not shown)",
    "answer_label": "f"
  },
  {
    "molecule": "CCC(O[N+](=O)[O-])C12CC3(C)CC(C)(CC(CCN)(C3)C1)C2 (stereo not shown)",
    "answer_label": "t"
  },
  {
    "molecule": "CC12CC3(C)CC(CN)(C1)CC(CO[N+](=O)[O-])(C2)C3",
    "answer_label": "t"
  },
  {
    "molecule": "CCC12CC3CC(N)(C1)CC(CO[N+](=O)[O-])(C3)C2 (stereo not shown) [NM-004, reference compound]",
    "answer_label": "f"
  },
  {
    "molecule": "NCC1(c2cccc(OCCCO[N+](=O)[O-])c2)C2CC3CC(C2)CC1C3 (stereo not shown)",
    "answer_label": "f"
  }
]
